Tested on: S180 sarcoma
Conditions: S180 sarcoma; Dosage 100 (mg/ml), ip × 10qd; second time
Items are presented alongside their recorded Body weight of the animals, beginning, Second time.
property.label: Body weight of the animals, beginning, Second time (g)

INSERT INTO assay_data (compound, tgt, test_result) VALUES
  ('CCCCn1c2ccccc2c2cc(C(=O)O)ncc21 [Compound 36, 9-butyl-β-carboline-3-carboxylic acid]', 'S180 sarcoma', 18.7),
  ('O=C(O)c1cc2c3ccccc3n(CCCc3ccccc3)c2cn1 [Compound 48]', 'S180 sarcoma', 18.5),
  ('CCOC(=O)Nc1cc2c3ccccc3n(Cc3ccccc3)c2cn1 [Compound 55]', 'S180 sarcoma', 20.3),
  ('OCc1cc2c3ccccc3n(Cc3ccccc3)c2cn1 [Compound 42, 9-benzyl-3-hydroxymethyl-β-carboline]', 'S180 sarcoma', 18.9),
  ('c1ccc(Cn2c3ccccc3c3ccncc32)cc1 [Compound 84, 9-Benzyl-β-carboline]', 'S180 sarcoma', 20.2),
  ('CCOC(=O)c1cc2c3ccccc3n(Cc3ccccc3)c2cn1 [Compound 33, ethyl 9-benzyl-β-carboline-3-carboxylate]', 'S180 sarcoma', 18.6),
  ('O=C(O)c1cc2c(cn1)[nH]c1ccccc12 [Compound 17, β-carboline-3-carboxylic acid]', 'S180 sarcoma', 18.6);

----------
System: Lewis lung cancer;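 also: mice implanted subcutaneously in the axilla with Lewis lung tumor cells, treated starting the following day, killed roughly three weeks after implantation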
Details: Lewis lung cancer; Dosage 100, ip × 10qd; first time
property.label: Weight of the tumor X ± SD, First time (g)

INSERT INTO assay_data (molecule, units_of_measure, test_result) VALUES
  ('O=C(O)c1cc2c(cn1)[nH]c1ccccc12', 'g', 1.84),
  ('COC(=O)c1cc2c([nH]c3ccccc32)c(-c2ccc(OC)cc2)n1', 'g', 1.65),
  ('c1ccc(Cn2c3ccccc3c3ccncc32)cc1', 'g', 1.63),
  ('CCCCn1c2ccccc2c2cc(C(=O)O)ncc21', 'g', 1.70),
  ('CCOC(=O)c1cc2c(cn1)[nH]c1ccccc12 [Compound 10, ethyl β-carboline-3-carboxylate]', 'g', 1.41),
  ('CCOC(=O)Nc1cc2c3ccccc3n(Cc3ccccc3)c2cn1', 'g', 1.76),
  ('COC(=O)c1cc2c([nH]c3ccccc32)c(-c2ccccc2)n1', 'g', 1.60);

----------
System: Bel-7402
Assay: In vitro cytotoxicity, IC50 by MTT method, Bel-7402
Assay type: cell-based
Details: Homo sapiens, Bel-7402; Bel7402 cell strain; read-out: IC50 Bel7402
Procedure: Culture medium powder RPMI1640 was dissolved in a proper amount of tri-distilled water according to the instruction of the product. […] It was the basic culture solution. […] The cells, at a concentration of 10^5/ml, were inoculated at a 96-pore culture plate. […] After that, OD value was identified with a Microplate Reader at the wavelength of 490 nm. The survival rate of the cells at various concentrations was calculated according to the following formula: […]
property.label: IC50 (µM)

INSERT INTO measurements (molecule, units_of_measure, censoring_sign, test_result) VALUES
  ('COC(=O)c1cc2c3ccccc3n(C)c2cn1 [Compound 26]', 'µM', '=', 190),
  ('CCOC(=O)c1cc2c3ccccc3n(C)c2cn1 [Compound 30, ethyl 9-methyl-β-carboline-3-carboxylate]', 'µM', '=', 140),
  ('O=C(OCc1ccccc1)c1cc2c3ccccc3n(Cc3ccccc3)c2cn1 [Compound 44]', 'µM', '>', 3000),
  ('Cc1nc(C(=O)O)cc2c3ccccc3n(Cc3ccccc3)c12 [Compound 64]', 'µM', '=', 690),
  ('c1ccc(Cn2c3ccccc3c3ccncc32)cc1 [Compound 84, 9-Benzyl-β-carboline]', 'µM', '=', 80),
  ('CCn1c2ccccc2c2ccncc21 [Compound 82, 9-ethyl-β-carboline]', 'µM', '=', 310),
  ('CCCCn1c2ccccc2c2cc(C(=O)OCC)ncc21 [Compound 32, ethyl 9-butyl-β-carboline-3-carboxylate]', 'µM', '=', 780),
  ('CCn1c2ccccc2c2cc(NC(=O)OC)ncc21 [Compound 53]', 'µM', '>', 3000),
  ('COC(=O)c1cc2c3ccccc3n(C)c2c(-c2ccccc2)n1 [Compound 76]', 'µM', '=', 620);

Cited source: patent US20090227619A1
